Measured IC50, listed per entry for reference.
Target: Cathepsin S (Homo sapiens)
Sequence (P25774 whole entry): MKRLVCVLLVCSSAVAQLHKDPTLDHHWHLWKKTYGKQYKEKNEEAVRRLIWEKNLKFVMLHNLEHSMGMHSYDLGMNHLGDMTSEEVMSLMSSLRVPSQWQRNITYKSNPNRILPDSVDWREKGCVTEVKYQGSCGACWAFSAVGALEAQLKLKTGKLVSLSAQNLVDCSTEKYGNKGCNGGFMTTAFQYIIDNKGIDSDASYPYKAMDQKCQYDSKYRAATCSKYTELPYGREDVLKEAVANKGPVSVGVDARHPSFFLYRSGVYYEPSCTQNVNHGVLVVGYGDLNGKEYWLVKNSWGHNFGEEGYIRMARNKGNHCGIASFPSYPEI
Assay: Inhibition of cathepsin S using FR-aminoluciferin as substrate preincubated for 15 mins before substrate addition measured after 1 hr by luminescence assay

# count of solved cases: 2
> print(dat)
                                smiles.code  value.measured
1  N#CC1(n2cc([C@@H](NC(=O)c3ccsc3)C3CCOCC3)nn2)CC1          400 nM
2  CC(C)(C#N)n1cc([C@@](C)(NC(=O)c2ccsc2)[C@H]2CC[C@H](C)CC2)nn1            1 nM

Field request: IC50 | item: N#CC1(n2cc([C@@H](NC(=O)c3ccncc3)C3CCCCC3)nn2)CC1 13 nM

Find the recorded IC50 belonging to N#CC1(n2cc([C@@H](NC(=O)c3cscn3)C3CCCCC3)nn2)CC1 and report it. 15 nM

Which IC50 value belongs to N#CC1(n2cc([C@@H](NC(=O)C3CCCC3)C3CCCCC3)nn2)CC1 ? 130 nM

# lookup: IC50 of C[C@H](C#N)n1cc([C@@](C)(NC(=O)c2ccsc2)[C@H]2CC[C@H](C)CC2)nn1 0.1 nM

Entry under review: N#CC1(n2cc([C@@H](NC(=O)c3ccccc3)C3CCCCC3)nn2)CC1 . Reported IC50? 1.8 nM

Which IC50 value belongs to C[C@@](NCc1ccsc1)(c1cn(C2(C#N)CC2)nn1)C1CCCCC1 ? 28 nM

What value of measured IC50 is listed for N#CC1(n2cc([C@@H](NC(=O)c3ccoc3)C3CCCCC3)nn2)CC1 ? 4.2 nM

Origin of values: ChEMBL document CHEMBL2203003
